// Kd lookup, one value per entry
Biological target: T1, L. plantarum DltA, full-length wild type, C-terminal His6 tag (Lactiplantibacillus plantarum, UniProt Q88VM6 1-508)
T1 construct: DltA (D-alanine-D-alanyl carrier protein ligase) of Lactiplantibacillus plantarum, full-length wild type, 508 residues, cloned in pT7-7; the C-terminal domain is not visible; also called LpDltA; D-alanine-D-alanyl carrier protein ligase; source: E. coli BL21 (DE3), purified (Ni-NTA, SEC)
T1 sequence (looked up): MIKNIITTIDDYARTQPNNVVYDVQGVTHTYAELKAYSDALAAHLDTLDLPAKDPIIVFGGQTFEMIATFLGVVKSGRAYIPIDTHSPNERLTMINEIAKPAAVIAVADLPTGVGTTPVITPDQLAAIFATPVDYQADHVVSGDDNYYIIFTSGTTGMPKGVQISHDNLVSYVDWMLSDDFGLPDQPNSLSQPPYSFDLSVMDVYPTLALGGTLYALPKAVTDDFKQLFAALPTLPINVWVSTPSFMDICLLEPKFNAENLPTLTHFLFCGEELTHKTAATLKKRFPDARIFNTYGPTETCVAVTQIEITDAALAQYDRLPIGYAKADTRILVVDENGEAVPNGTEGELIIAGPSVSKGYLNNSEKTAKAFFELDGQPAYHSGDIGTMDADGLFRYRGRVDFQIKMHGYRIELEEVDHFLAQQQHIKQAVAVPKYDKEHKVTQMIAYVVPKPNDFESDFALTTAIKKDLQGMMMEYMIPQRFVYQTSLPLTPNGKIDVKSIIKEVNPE
Test: MST; one protein labelled with NHS red fluorescent dye (RED-NHS Monolith NT kit); Hepes 25 mM pH 7.5, NaCl 300 mM, Tween20 0.05%; 22 °C; triplicate
Conditions: both partners purified
The answer should read as a number with its unit following.

1. apo-DltC1-S38A, C-terminal His6 tag (natural protein, Lactiplantibacillus plantarum, UniProt Q88VM8 1-80, looked up, DltC1 (nc8_1734) of Lactiplantibacillus plantarum, full length, catalytic Ser38 mutated to Ala, cloned in pET-28a(+); source: E. coli BL21 (DE3)-RIPL, purified (Ni-NTA, SEC); 15N- or 13C,15N-labelled in M9 minimal media for NMR) MTMDDTKATVLSILADLTGEDVSSNMDVNLFDEGILDAMGSVQLLLELQNQLGIEVPVSEFQRSEWDTPAKIVAKVENLQ :: 8.89 µM

Now, please, on to the next binder.
Task: Data request, read-out Kd, for holo-DltC1 (DltC1 fully modified by phosphopantetheine), C-terminal His6 tag (natural protein, Lactiplantibacillus plantarum, UniProt Q88VM8 1-80, looked up, phosphopantetheine (Ppant) covalently attached to Ser38, confirmed by mass spectrometry, DltC1 (nc8_1734) of Lactiplantibacillus plantarum, wild type, co-expressed with wild type AcpS from pRSF-Duet1; also called Ppant-DltC1; Ppant-modified DltC; source: E. coli BL21 (DE3), co-expressed with LpAcpS from pRSF-Duet1, purified (Ni-NTA, SEC); 15N-labelled in M9 minimal media for NMR) MTMDDTKATVLSILADLTGEDVSSNMDVNLFDEGILDSMGSVQLLLELQNQLGIEVPVSEFQRSEWDTPAKIVAKVENLQ
Result: 5.74 µM
